Source of measurements: ChEMBL document CHEMBL3352551

Entries and their inhibition values follow.
target: Adenosine receptor A1 (Homo sapiens); assay: Allosteric enhancer activity at human adenosine A1 receptor expressed in CHO cells assessed as inhibition of forskolin-induced cAMP production at 100 nM in presence of 1 pM CCPA; type: functional, cell-based

>  <smiles_structure>
Cc1c(CCc2ccccc2)sc(N)c1C(=O)c1ccc(Cl)cc1

>  <inhibition [%]>
27

$$$$
>  <smiles_structure>
CC(C)(C)Cc1c(C#Cc2ccccc2)sc(N)c1C(=O)c1ccc(Cl)cc1

>  <inhibition [%]>
77

$$$$
>  <smiles_structure>
Nc1sc(C#Cc2ccccc2)c(CN(C2CCCCC2)C2CCCCC2)c1C(=O)c1ccc(Cl)cc1

>  <inhibition [%]>
19

$$$$
>  <smiles_structure>
Nc1sc(CCc2ccccc2)cc1C(=O)c1ccc(Cl)cc1

>  <inhibition [%]>
20

$$$$

----------
target: Adenosine receptor A1 (Homo sapiens) (UniProt P30542); assay: Allosteric enhancer activity at human adenosine A1 receptor expressed in CHO cell membranes assessed as shift in CCPA binding Ki level at 10 uM by [3H]DPCPX competition binding assay
Sequence (P30542 whole entry): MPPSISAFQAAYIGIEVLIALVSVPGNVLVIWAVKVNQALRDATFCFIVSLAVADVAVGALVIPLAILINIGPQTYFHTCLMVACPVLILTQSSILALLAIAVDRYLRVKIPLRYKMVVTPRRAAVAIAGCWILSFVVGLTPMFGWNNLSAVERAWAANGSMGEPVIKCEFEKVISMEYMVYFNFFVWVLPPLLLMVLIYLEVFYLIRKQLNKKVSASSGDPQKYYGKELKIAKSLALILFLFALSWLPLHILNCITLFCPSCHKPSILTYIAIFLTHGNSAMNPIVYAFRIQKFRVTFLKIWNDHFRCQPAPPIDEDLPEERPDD

>  <smiles_structure>
Nc1sc(C#Cc2ccccc2)c(CN2CCN(c3ccccc3)CC2)c1C(=O)c1ccc(Cl)cc1

>  <fold change (FC)>
2.8

$$$$
>  <smiles_structure>
COc1ccc(-c2sc(N)c(C(=O)c3ccc(Cl)cc3)c2CC(C)(C)C)cc1

>  <fold change (FC)>
4.3

$$$$
>  <smiles_structure>
Nc1sc(C#Cc2ccccc2)c(CN(C2CCCCC2)C2CCCCC2)c1C(=O)c1ccc(Cl)cc1

>  <fold change (FC)>
3.7

$$$$
>  <smiles_structure>
Cc1cc(C)c(C#Cc2sc(N)c(C(=O)c3ccc(Cl)cc3)c2CC(C)(C)C)cc1C

>  <fold change (FC)>
7.5

$$$$
>  <smiles_structure>
CC(C)(C)Cc1c(C#CC2CCCCC2)sc(N)c1C(=O)c1ccc(Cl)cc1

>  <fold change (FC)>
4.8

$$$$
>  <smiles_structure>
CC(C)(C)Cc1c(CCc2ccccc2)sc(N)c1C(=O)c1ccc(Cl)cc1

>  <fold change (FC)>
3.5

$$$$
>  <smiles_structure>
Cc1ccc(-c2sc(N)c(C(=O)c3ccc(Cl)cc3)c2CC(C)(C)C)cc1

>  <fold change (FC)>
6

$$$$
>  <smiles_structure>
CC(C)(C)Cc1c(-c2ccccc2)sc(N)c1C(=O)c1ccc(Cl)cc1

>  <fold change (FC)>
4.8

$$$$
>  <smiles_structure>
Cc1ccc(C#Cc2sc(N)c(C(=O)c3ccc(Cl)cc3)c2CC(C)(C)C)cc1

>  <fold change (FC)>
7.5

$$$$
>  <smiles_structure>
Cc1ccc(CCc2sc(N)c(C(=O)c3ccc(Cl)cc3)c2CC(C)(C)C)cc1

>  <fold change (FC)>
3.8

$$$$
>  <smiles_structure>
CC(C)(C)Cc1c(C#Cc2ccccc2)sc(N)c1C(=O)c1ccc(Cl)cc1

>  <fold change (FC)>
9.9

$$$$
>  <smiles_structure>
Nc1sc(-c2ccccc2)c(CN2CCN(c3ccccc3)CC2)c1C(=O)c1ccc(Cl)cc1

>  <fold change (FC)>
8.3

$$$$
>  <smiles_structure>
Cc1c(C#Cc2ccccc2)sc(N)c1C(=O)c1ccc(Cl)cc1

>  <fold change (FC)>
1.5

$$$$
>  <smiles_structure>
Cc1ccc(C)c(C#Cc2sc(N)c(C(=O)c3ccc(Cl)cc3)c2CC(C)(C)C)c1

>  <fold change (FC)>
4

$$$$
>  <smiles_structure>
Nc1sc(C#Cc2ccccc2)c(CN2CCN(c3ccc(C(F)(F)F)cc3)CC2)c1C(=O)c1ccc(Cl)cc1

>  <fold change (FC)>
3

$$$$
>  <smiles_structure>
Nc1sc(C#Cc2ccccc2)c(CN2CCN(c3ccc(Cl)c(C(F)(F)F)c3)CC2)c1C(=O)c1ccc(Cl)cc1

>  <fold change (FC)>
2.4

$$$$
>  <smiles_structure>
Nc1sc(C#Cc2ccccc2)c(CN2CCN(c3ccc(Cl)cc3)CC2)c1C(=O)c1ccc(Cl)cc1

>  <fold change (FC)>
3.6

$$$$
